- measurement notes: Tmax in Beagle dog at 2 mg/kg,iv measured upto 24 hrs
- Format: ADME, organism-based, Canis lupus familiaris
- experimental context: in vivo
endpoint label: Tmax (min)
Provide the reading as a plain figure in min.

Assign Tmax to the following record: `CC(=O)O[C@@]12CO[C@@H]1C[C@H](O)[C@@]1(C)C(=O)[C@H](O)C3=C(C)[C@@H](OC(=O)[C@H](OC(=O)CCC(=O)NCCCC[C@H](NC(=O)CC[C@@H](NC(=O)[C@H](C)NC(=O)/C=C/c4ccc(F)cc4Cl)C(N)=O)C(=O)O)[C@@H](NC(=O)OC(C)(C)C)c4ccccc4)C[C@@](O)([C@@H](OC(=O)c4ccccc4)[C@H]21)C3(C)C`
30

Source: ChEMBL document CHEMBL5252546
